Tested on: HCV replicon 1AY93H
experiment description: Cell-based HCV Replicon Assay A, replicon 1AY93H
settings: read-out: 1A Y93H IC50, replicon 1AY93H
Each entry below lists one item and its recorded log10 IC50 value.
property label: log10 IC50 (log10 of the value in nM)

- COC(=O)NC(C(=O)N1[C@@H]2C[C@@H]2C[C@H]1c1ncc(-c2ccc3c(c2)cc2n3C(c3cnc(C4CC4)s3)Oc3cc(-c4cnc([C@@H]5CCCN5C(=O)[C@@H](NC(=O)OC)C(C)C)[nH]4)cc(C)c3-2)[nH]1)C1C[C@@H](C)O[C@@H](C)C1 (single isomer, unassigned) [Compound 216]: -0.53
- COC(=O)N[C@H](C(=O)N1CCC[C@H]1c1ncc(-c2cc(F)c3c(c2)OC(c2ncc(C4CC4)s2)n2c-3cc3cc(-c4cnc([C@@H]5CCCN5C(=O)[C@@H](NC(=O)OC)C(C)C)[nH]4)ccc32)[nH]1)C(C)C (single isomer, unassigned) [Compound 8]: -0.82
- COC(=O)N[C@H](C(=O)N1CCC[C@H]1c1ncc(-c2cc(F)c3c(c2)OC(c2cnc(C4CC4)s2)n2c-3cc3cc(-c4cnc([C@@H]5C[C@H]6C[C@H]6N5C(=O)[C@@H](NC(=O)OC)C(C)C)[nH]4)ccc32)[nH]1)C(C)C (single isomer, unassigned) [Compound 300]: -2.39
- COC(=O)NC(C(=O)N1CCC[C@H]1c1ncc(-c2ccc3c(c2)cc2n3C(c3cnc(C4(C)CCCC4)s3)Oc3cc(-c4cnc([C@@H]5CCCN5C(=O)[C@@H](NC(=O)OC)C(C)C)[nH]4)cc(F)c3-2)[nH]1)C1C[C@@H](C)O[C@@H](C)C1 (single isomer, unassigned) [Compound 470]: -0.29
- COC(=O)NC(C(=O)N1CCC[C@H]1c1ncc(-c2ccc3c(c2)cc2n3C(c3cnc(CC(C)C)s3)Oc3cc(-c4cnc([C@@H]5CCCN5C(=O)[C@@H](NC(=O)OC)C(C)C)[nH]4)cc(F)c3-2)[nH]1)C1C[C@@H](C)O[C@@H](C)C1 (single isomer, unassigned) [Compound 546]: -0.50
- COC(=O)NC(C(=O)N1[C@@H]2C[C@@H]2C[C@H]1c1ncc(-c2ccc3c(c2)cc2n3C(c3cnc(C4(C)CCCC4)s3)Oc3cc(-c4cnc([C@@H]5CCCN5C(=O)[C@@H](NC(=O)OC)C(C)C)[nH]4)cc(F)c3-2)[nH]1)C1CCOC(C)(C)C1 (single isomer, unassigned) [Compound 475]: -3.00
- CCCc1ncc(C2Oc3cc(-c4cnc([C@@H]5CCCN5C(=O)[C@@H](NC(=O)OC)C(C)C)[nH]4)cc(F)c3-c3cc4cc(-c5cnc([C@@H]6C[C@H]7C[C@H]7N6C(=O)C(NC(=O)OC)C6C[C@@H](C)O[C@@H](C)C6)[nH]5)ccc4n32)s1 (single isomer, unassigned) [Compound 108]: -2.48
